Reference for the values: PubChem BioAssay

- systemName: NADPH oxidase 2 (Homo sapiens)
- assayNotes: compounds shifting NOX2 Amplex Red fluorescence – cell-based, HEK293-NOX2, PMA-stimulated, NOX inhibitor project, primary screen (AID 1159); further: test concentration not given here
- conditionDetails: 45 min, higher = more signal, called active from +8 up or from −8 down
z-score below 0.6 gives 0; z-score at or above it gives 1.

* CN(C)CCCCCCNC(=O)[C@@H]1C[C@@H]2C(=O)N[C@@H](Cc3ccccc3)C(=O)N2[C@@H]1c1cccc(OCCO)c1 | 1
* CC(C)C(O)C1C=CC2C(=O)N(C)C(=O)C2N1N1CCCCC1 (centres undefined) | 0
* CC[C@@H]1C=C(C(=O)O)[C@H](c2ccc(C(C)C)cc2)N1S(=O)(=O)c1ccc(C)cc1 | 1
* C=C(COC)C(=O)CC[C@H](OC(=O)c1cccnc1)c1ccccc1OCCO | 0
* C[n+]1ccc2ccc(O)cc2c1 | 0
* C=C(CCCC)C(=O)CC[C@H](OC(=O)c1ccccc1-c1ccccc1C(=O)O)c1ccc(CO)o1 | 0
* C=C[C@H](OC)[C@@H](OC(=O)Nc1ccc(SC)cc1)c1ccc(OCCO)cc1 | 0
* O=C1O[C@@H](c2ccccc2)[C@@H](c2ccccc2)N2[C@@H](c3ccc(O)cc3)[C@]3(C(=O)Nc4ccc(C#CCCO)cc43)[C@@H](C(=O)O)[C@H]12 | 1
* CCCC[C@H]1OB(O)C[C@H]2C1=C(C)Cn1c(=O)n(-c3ccccc3)c(=O)n12 | 0

====

- systemName: Torsin-1A-interacting protein 1 (Homo sapiens) (UniProt Q5JTV8)
- Sequence (Q5JTV8 whole entry, looked up): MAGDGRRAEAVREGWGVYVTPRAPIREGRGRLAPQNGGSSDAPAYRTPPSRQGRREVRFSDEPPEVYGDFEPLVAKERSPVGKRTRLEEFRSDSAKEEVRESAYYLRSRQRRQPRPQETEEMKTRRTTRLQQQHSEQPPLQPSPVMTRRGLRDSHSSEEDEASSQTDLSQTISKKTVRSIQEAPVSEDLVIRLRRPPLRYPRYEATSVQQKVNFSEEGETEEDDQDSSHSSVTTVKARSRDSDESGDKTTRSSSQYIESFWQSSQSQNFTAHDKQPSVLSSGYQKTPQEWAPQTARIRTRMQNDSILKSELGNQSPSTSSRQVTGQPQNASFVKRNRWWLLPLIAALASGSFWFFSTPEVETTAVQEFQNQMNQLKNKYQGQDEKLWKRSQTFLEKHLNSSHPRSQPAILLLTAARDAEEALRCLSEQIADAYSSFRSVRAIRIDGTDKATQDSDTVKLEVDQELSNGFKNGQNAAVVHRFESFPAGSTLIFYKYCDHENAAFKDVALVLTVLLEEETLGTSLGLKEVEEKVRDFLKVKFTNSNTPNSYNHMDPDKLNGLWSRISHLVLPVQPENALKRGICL
- assayNotes: compound microarray binding of lysate hLAP1 – cell lysate, small-molecule microarray, COS7 lysate, 635/667 nm fluorescence, primary screen (AID 1116)
- conditionDetails: 635 nm fluorescence, higher = more signal
Overview of reported composite z-score across a group of compounds:
metricName: composite z-score

• C=C(CCCC)C(=O)CC[C@H](OC(=O)c1ccccc1-c1ccccc1C(=O)O)c1ccc(CO)o1 = 0.876
• Cc1ccc([C@H]2C(C(=O)O)=C[C@@H](C(C)C)N2S(=O)(=O)c2ccc(C)cc2)cc1 = 0.984
• CC(C)NC(=O)[C@@H]1c2ccccc2C(=O)N(C2CCCCC2)[C@H]1c1ccc(CO)cc1 = 0.416
• CO[C@H]1O[C@H](CO)[C@@H](OC(=O)Nc2ccccc2-c2ccccc2)[C@H](OC(=O)Nc2ccccc2-c2ccccc2)[C@H]1OC(=O)Nc1ccccc1-c1ccccc1 = 1.41

====

- assayNotes: JC-1 mitochondrial signal, unstimulated adipocytes – cell-based, JC-1 fluorescence, 3T3-L1 adipocytes, 24 h, 100 nL compound, profiling panel (AID 1168); further: test concentration not given here
- conditionDetails: JC-1 mitochondrial fluorescence, higher = more signal, called active from +8 up or from −8 down
Activity calls are given as the source filed them.
Overview of reported z-score across a group of compounds:
metricName: z-score

• COCCn1c(C(=O)N(C)C)cc2c1C[C@H]1CN(C(=O)c3ccccc3)[C@@](Cc3ccc(F)cc3)(C(=O)OC)[C@@H]21 = -0.499 (inactive)
• CCCCCCCCCCC(O)C1C=CC2C(=O)N(c3ccccc3)C(=O)C2N1Nc1ccc([N+](=O)[O-])cc1 (configuration not stated) = 0.656 (inactive)
• Cc1ccc(S[C@]2(C(=O)NCC(C)C)CC(=O)N(Cc3ccccc3)[C@@H]2c2ccc(CO)cc2)cc1 = -0.239 (inactive)
• COc1cc(NN2C(C(O)c3ccccc3)C=CC3C(=O)N(c4ccccc4)C(=O)C32)cc(OC)c1OC (configuration not stated) = -1.72 (inactive)
• COc1c(C)cc(-c2cc3c(c(-c4ccccc4)n2)[Si](C(C)C)(C(C)C)O[C@H]3c2ccccc2)cc1C = -1 (inactive)
• Cc1ccc(S(=O)(=O)N2CC(C(=O)O)=CCC2c2ccccc2)cc1 (configuration not stated) = -2.04 (inactive)
• COCCOC(=O)N1C(=O)[C@@]2(c3cc(C#CCCO)ccc31)[C@H](C(=O)NC[C@H](O)c1ccccc1)[C@H]1C(=O)O[C@H](c3ccccc3)[C@H](c3ccccc3)N1[C@@H]2c1ccc(OCCO)cc1 = 0.623 (inactive)
• C=C[C@H](C)[C@H](OC(=O)Nc1ccc(OC)cc1)c1ccc(O)c2ccccc12 = -1 (inactive)
• O=C1O[C@@H](c2ccccc2)[C@@H](c2ccccc2)N2[C@@H](c3ccccc3OCCO)[C@]3(C(=O)Nc4ccc(C#CC5(O)CCCCCC5)cc43)[C@@H](C(=O)NC[C@H](O)c3ccccc3)[C@H]12 = 0.986 (inactive)
• COc1ccc([Si](C)(C)[C@@H]2[C@@H](CCO)O[C@]3(C(=O)N(Cc4cccc(N5CCCCC5=O)c4)c4ccccc43)[C@H]2C)cc1 = 0.128 (inactive)
• O=C1OCC=C[C@H]2OC34C=CCN(c5ccc(Cl)cc5)C(=O)[C@H]3N(CCCO)C(=O)[C@@H]4[C@@H]12 (some centres not stated) = 0.978 (inactive)
• C=C(C)[C@@H]1CC=C(C(O)C2C=CC3C(=O)N(Cc4ccccc4)C(=O)C3N2n2cnnc2)CC1 (some centres not stated) = -0.403 (inactive)
• O=[N+]([O-])c1ccc(C[n+]2ccc(CCCO)cc2)o1 = -0.266 (inactive)
• O=C1O[C@@H](c2ccccc2)[C@@H](c2ccccc2)N2[C@@H](c3ccc(O)cc3)[C@]3(C(=O)Nc4ccc(C#CCCO)cc43)[C@@H](C(=O)N3CCCCCCC3)[C@H]12 = -0.585 (inactive)
• C=CCN1Cc2ccccc2C[C@@]2(COC(c3ccc(OCCCO)cc3)=N2)C1=O = 0.94 (inactive)
• COC(=O)[C@@]1(Cc2ccc(OC)cc2)[C@H]2c3cc(C(=O)N4CCCC4)n(CCc4ccccn4)c3C[C@H]2CN1C(=O)c1ccccc1 = -1.59 (inactive)
• COc1ccc([Si](C)(C)[C@H]2[C@H](CCO)O[C@@]3(C(=O)N(Cc4cccc(N5C(=O)c6cccc7cccc5c67)c4)c4ccccc43)[C@@H]2C)cc1 = 1.49 (inactive)
• COc1ccc([Si](C)(C)[C@H]2[C@H](CC(=O)N3Cc4ccccc4C[C@H]3CO)O[C@@]3(C(=O)N(Cc4cccc(I)c4)c4ccccc43)[C@@H]2C)cc1 = 0.814 (inactive)
• O=C1OCC=C[C@H]2OC34C=CCN(Cc5ccccc5)C(=O)[C@H]3N(CCCO)C(=O)[C@@H]4[C@@H]12 (some centres not stated) = -0.0748 (inactive)
• CC(C)[C@H]1COC(=O)N1C(=O)[C@H]1[C@@H](c2ccccc2)N(c2ccccc2)O[C@@H]1C = 0.997 (inactive)
• [N-]=[N+]=NCc1ccccc1C[C@@]1(C(=O)NCc2ccccc2)N=C(c2ccc(OCCCO)cc2)O[C@@H]1c1ccccc1CN=[N+]=[N-] = -0.835 (inactive)
• CC(c1ccccc1)C(O)C1C=CC2C(=O)N(Cc3ccccc3)C(=O)C2N1n1cnnc1 (configuration not stated) = -0.884 (inactive)
• CCOC1=C2C(c3ccc(C)cc3)N(S(=O)(=O)c3ccc(C)cc3)CC2n2c(=O)n(-c3ccccc3)c(=O)n2C1 (configuration not stated) = 0.497 (inactive)
• CO[C@H]1O[C@H](CO)[C@@H](OC(=O)Nc2cccc(F)c2)[C@H](OC(=O)Nc2ccccc2-c2ccccc2)[C@@H]1OC(=O)Nc1ccccc1-c1ccccc1 = 0.827 (inactive)
• COCC1C2CC[C@H]3C(OCc4ccc(F)cc4C(F)(F)F)OC[C@]4(C)[C@H]3C2=C(CN4C(=O)OC(C)(C)C)[C@H](C)C1COC (some centres not stated) = -0.453 (inactive)
• C=CCC(OC(C)=O)[C@@H]1[C@@H](N(Cc2ccc(-c3ccccc3)cc2)C(=O)c2ccc(C)cc2)c2cc(OCCCO)ccc2N1C(=O)c1ccc2ccccc2n1 (some centres not stated) = 0.285 (inactive)
• C=C(CCCC)C(=O)CC[C@@H](OC(=O)c1ccccc1-c1ccccc1C(=O)O)c1ccc(CO)o1 = -0.26 (inactive)

====

- assayNotes: binders of probe aHhip on microarray, primary screen, stem cell growth factor project, biochemical, small-molecule microarray, fluorescence 635/667 (AID 1087);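 further: score merges spot fluorescence at 667nm with spot signal to noise ratio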
- conditionDetails: higher = more signal
Overview of reported composite z-score across a group of compounds:
metricName: composite z-score

- COC(=O)[C@@]1(Cc2ccc(OC)cc2)[C@H]2c3cc(C(=O)N(C)C)n(CCSCCO)c3C[C@H]2CN1C(=O)c1ccccc1: -0.04
- COc1ccccc1CN1C(=O)c2ccccc2[C@](Cc2ccccc2I)(C(=O)NC2CC2)[C@@H]1c1ccc(CO)cc1: 0.136
- COCCOC(=O)N1C(=O)[C@@]2(c3cc(C#CC4(O)CCCCCC4)ccc31)[C@H](c1ccc(O)cc1)N1[C@H](c3ccccc3)[C@H](c3ccccc3)OC(=O)[C@H]1[C@@H]2C(=O)N1CCc2cc(OC)c(OC)cc2C1: -0.268
- COCC1=C([C@H](O)CCc2ccccc2)[C@H](CO)[C@@H]2C(=O)N(Cc3ccccc3)C(=O)[C@@H]2C1: -0.249
- CC[C@@H]1C=C(C(=O)O)[C@H](c2ccc(C(C)C)cc2)N1S(=O)(=O)c1ccc(C)cc1: 0.0401
- COC(=O)[C@@]1(Cc2ccc(OC)cc2)[C@H]2c3cc(C(=O)N(C)C)n(Cc4ccc(OC)c(OC)c4)c3C[C@H]2CN1C(=O)c1ccccc1: 0.525
- COC(=O)c1c2oc(c1C(=O)OC)C(=O)N[C@H](Cc1ccccc1)Cn1nncc1C1(CCCCC1)NC(=O)N[C@H](CO)CC2: -0.212
- COC(=O)C(CC#Cc1ccc2c(c1)[C@]1(C(=O)N2)[C@H](C(=O)N2CCCCCCC2)[C@H]2C(=O)O[C@H](c3ccccc3)[C@H](c3ccccc3)N2[C@@H]1c1ccccc1OCCO)C(=O)OC: 3.1
- COC(=O)[C@@]1(Cc2ccc(OC)cc2)[C@H]2c3cc(C(=O)N4CCCC4)n(C[C@H](O)CO)c3C[C@H]2CN1C(=O)c1ccccc1: 0.0749
- O=C(NCC(O)CO)[C@@]1(Cc2ccccc2)N=C(c2ccc(OCCCO)cc2)O[C@H]1c1ccccc1 (some centres not stated): 0.415
- Cc1ccc(S[C@]2(C(=O)NCCN3CCOCC3)CC(=O)N(C3CCCCC3)[C@@H]2c2ccc(CO)cc2)cc1: -0.0645
- C[n+]1ccc2ccc(O)cc2c1: -0.0994
- COCCOC(=O)N1C(=O)[C@@]2(c3ccccc31)[C@H](C(=O)N1CCCCCCC1)[C@H]1C(=O)O[C@H](c3ccccc3)[C@H](c3ccccc3)N1[C@@H]2c1ccccc1OCCO: 3.52
- NC(=O)NCC#Cc1ccc2c(c1)[C@]1(C(=O)N2)[C@H](c2ccc(O)cc2)N2[C@H](c3ccccc3)[C@H](c3ccccc3)OC(=O)[C@H]2[C@@H]1C(=O)N1CCN(c2ncccn2)CC1: -0.191
- COc1ccc(CCNC(=O)[C@@]2(C)c3ccccc3C(=O)N(Cc3ccccc3)[C@H]2c2ccc(CO)cc2)cc1: 0.0286
- C=CCC(OC(C)=O)[C@@H]1[C@@H](N(Cc2cc3ccccc3o2)C(=O)c2ccc(C)cc2)c2cc(OCCCO)ccc2N1C(=O)c1ccc(-c2ccccc2)cc1 (some centres not stated): 0.113
- C=CC[C@@]1(C(N)=O)N=C(c2ccc(OCCCO)cc2)O[C@@H]1c1ccccc1N=[N+]=[N-]: 0.0769
- COCCOC(=O)N1C(=O)[C@@]2(c3cc(C#Cc4ccc(OC)cc4)ccc31)[C@H](c1ccc(OCCO)cc1)N1[C@H](c3ccccc3)[C@H](c3ccccc3)OC(=O)[C@H]1[C@@H]2C(=O)N1CCc2cc(OC)c(OC)cc2C1: 0.232
- CCN(CC)c1ccc(N2CC=CC34O[C@@H]5C=CCCOC(=O)C5[C@H]3C(=O)N(CCCO)[C@@H]4C2=O)cc1 (some centres not stated): -0.134
- O=C1OCC=C[C@H]2OC34C=CCN(c5ccc6ccccc6c5)C(=O)[C@H]3N(CCO)C(=O)[C@@H]4[C@@H]12 (some centres not stated): -0.27
- O=C1C[C@@](C(=O)O)(c2ccc([N+](=O)[O-])cc2)[C@@H](c2ccc(CO)cc2I)N1C1CCCCC1: 0.12
- O=C1OCCC/C=C\[C@H]2OC34C=CCN(Cn5nnc6ccccc65)C(=O)[C@H]3N(CCCO)C(=O)[C@@H]4C12 (some centres not stated): -0.271
- O=c1cccc(-c2ccc3ccccc3c2)o1: -0.0022
- COc1ccc([Si](C)(C)[C@@H]2[C@@H](CCO)O[C@]3(C(=O)N(Cc4cccc(N(C=O)c5ccccc5)c4)c4ccccc43)[C@H]2C)cc1: 0.0524
- COc1ccc([Si](C)(C)[C@H]2[C@H](CC(=O)N3CCC[C@H]3CO)O[C@@]3(C(=O)N(Cc4cccc(N5CCC5=O)c4)c4ccccc43)[C@@H]2C)cc1: -0.253
- COc1ccc(C(=O)Nc2cccc(CN3C(=O)[C@@]4(O[C@@H](CCn5cc([C@H](O)c6ccccc6)nn5)[C@H]([Si](C)(C)c5ccc(OC)cc5)[C@H]4C)c4ccccc43)c2)cc1: 0.0373
- COC(=O)[C@@]1(Cc2ccccc2)[C@H]2c3cc(C(=O)N(C)C)n(Cc4ccccc4)c3C[C@H]2CN1C(=O)c1ccccc1: 0.896
